Test system: MOLT-4
Assay: NCI tumour cell line growth inhibition, 48 h
Activity calls are given as the source filed them. Cut-off read from the data, not from the text of the source: active = GI50 up to about 1.1 µM and inactive = higher.
Items are presented alongside their recorded GI50.

compound	GI50
Cc1cccc(CNNC(=O)c2cc[n+]([BH2-]C#N)cc2)c1	28.2 µM (inactive)
Cc1cc(C)c2nc3c(c(C(O)C4CCCCN4)c2c1)CC/C3=C\c1ccc(Cl)cc1 (stereo not given)	26.7 µM (inactive)
CC(=O)Oc1c(-c2ccccc2)[nH]c2cc([N+](=O)[O-])c(/C(Cl)=C/c3ccccc3)cc12	2.84 µM (inactive)
CN(C)c1n/c(=N/Cc2ccncc2)ss1	20.3 µM (inactive)

Can you share its GI50? I mean this compound: CN1CC2=C(N=C(S)NC2c2ccc(Cl)cc2)/C(=C/c2ccc(Cl)cc2)C1 (stereo not given)
5.32 µM (inactive)
